Tested on: Bacillus subtilis
Experiment: Antimicrobial activity against Bacillus subtilis MTCC 441 at 1 mg/disc after 24 hrs by disc diffusion assay
Type: functional
Calls of active or inactive are those of the source. The calls are words filed in the database; no cut-off is given here.
metric_name: inhibition zone (IZ)

Worked cases, inhibition zone (IZ) given:
[Q] Please look up its inhibition zone (IZ): "C[C@H](N[C@H](C)[C@@H](O)c1ccccc1)c1ccccc1.Cl"
[A] 16 mm

[Q] Recorded inhibition zone (IZ) for CN[C@@H]1[C@H](O[C@H]2[C@H](O[C@H]3[C@H](O)[C@@H](O)[C@H](N=C(N)N)[C@@H](O)[C@@H]3N=C(N)N)O[C@@H](C)[C@]2(O)C=O)O[C@@H](CO)[C@H](O)[C@H]1O [STREPTOMYCIN] , please?
[A] 30 mm

[Q] State the recorded inhibition zone (IZ) for this entry: "CC(C)C[C@@H](C)N[C@@H](C)[C@H](O)c1ccccc1.Cl"
[A] 15 mm

[Q] I would be grateful if you could share the reported inhibition zone (IZ) for "CC[C@@H](N[C@@H](C)[C@H](O)c1ccccc1)c1ccccc1.Cl" .
[A] 20 mm

More entries:
[Q] Need inhibition zone (IZ) of "CC(C)C[C@H](C)N[C@H](C)[C@@H](O)c1ccccc1.Cl" , thanks.
[A] 12 mm

[Q] Entry under review: CC[C@H](C)N[C@H](C)[C@@H](O)c1ccccc1.Cl (mixture of isomers) . Reported inhibition zone (IZ)?
[A] inactive

[Q] If you can, please state the reported inhibition zone (IZ) value of CC[C@@H](C)N[C@@H](C)[C@H](O)c1ccccc1.Cl (mixture of isomers) .
[A] inactive

[Q] Sample "COc1ccc([C@@H](C)N[C@@H](C)[C@H](O)c2ccccc2)cc1.Cl" — what was its inhibition zone (IZ)?
[A] 14 mm

[Q] Look at this compound and give its reported inhibition zone (IZ). "COc1ccc([C@H](C)N[C@H](C)[C@@H](O)c2ccccc2)cc1.Cl"
[A] 18 mm

[Q] Endpoint output: inhibition zone (IZ) of "CC[C@H](N[C@H](C)[C@@H](O)c1ccccc1)c1ccccc1.Cl" . Value?
[A] 22 mm

[Q] For the compound "C[C@H](N[C@H](C)c1ccccc1)[C@H](O)c1ccccc1.Cl" , what inhibition zone (IZ) is on record?
[A] 14 mm

* * *

Test system: Salmonella typhimurium
Assay: Antimicrobial activity against Salmonella typhimurium MTCC 1251 after 24 hrs by two fold dilution method
Type: functional, Salmonella enterica subsp. enterica serovar Typhimurium
Settings: Salmonella enterica, MTCC 1251, 24 h
I'd appreciate it if you could supply MIC values for the items below.
Just the number in µg/mL, nothing appended.

[Q] What value of MIC has been reported for the following compound? "C[C@H](N[C@H](C)c1ccccc1)[C@H](O)c1ccccc1.Cl"
[A] 250

[Q] Look at this compound and give its reported MIC. "C[C@H](N[C@H](C)[C@@H](O)c1ccccc1)c1ccccc1.Cl"
[A] 250

[Q] Sample "CC(C)C[C@@H](C)N[C@@H](C)[C@H](O)c1ccccc1.Cl" — what was its MIC?
[A] 125

[Q] // returns reported MIC for input "CC[C@H](N[C@H](C)[C@@H](O)c1ccccc1)c1ccccc1.Cl"
[A] 62.5

[Q] Which value of MIC has been reported for "COc1ccc([C@H](C)N[C@H](C)[C@@H](O)c2ccccc2)cc1.Cl" in the records?
[A] 125

[Q] # get_value(readout='MIC', item= "CC(C)C[C@H](C)N[C@H](C)[C@@H](O)c1ccccc1.Cl" )
[A] 500

[Q] Look at this compound and give its reported MIC. "CN[C@@H]1[C@H](O[C@H]2[C@H](O[C@H]3[C@H](O)[C@@H](O)[C@H](N=C(N)N)[C@@H](O)[C@@H]3N=C(N)N)O[C@@H](C)[C@]2(O)C=O)O[C@@H](CO)[C@H](O)[C@H]1O"
[A] 30

[Q] Requested field: MIC. Item: "CC[C@@H](N[C@@H](C)[C@H](O)c1ccccc1)c1ccccc1.Cl"
[A] 31.2

[Q] Query: MIC; subject: "COc1ccc([C@@H](C)N[C@@H](C)[C@H](O)c2ccccc2)cc1.Cl"
[A] 250
